The measurements presented in this section are drawn from PubChem BioAssay (NCI).

# System: MDA-MB-435 melanoma
# protocolDescription: NCI-60 one-dose screen, 48 h
# experimentalSetup: 10 µM unless noted
About 83,000 compounds went through this panel and 20% of them were active in at least one assay; those are over-represented in the sample as a whole. Active and inactive are the calls of the source. How the source made its calls: active means growth percent below 10; inactive means the rest.
Allowed answers: t for active, f for inactive

1) CCOC(=O)c1ccc[nH]1 | f
2) COc1ccc(Nc2ncc(I)c(NCCCNC(=O)C3CCC3)n2)cc1 | f
3) O=C1CCCC1[n+]1ccccc1 (stereo not given) | f

Alright, here's another compound for you.
Recorded call for CC(=O)N1N=C(c2ccc(Nc3nc(Nc4ccc(F)cc4)nc(Nc4ccc(F)cc4)n3)cc2)CC1c1ccc(N(C)C)cc1 (stereo not given) ?
t
